Where do these numbers come from? They come from ChEMBL document CHEMBL5608163.

Tested on: Erythrocyte
assay.text: Hemolytic activity in human erythrocytes incubated for 1 hr by ELISA reader analysis
Type: toxicity, cell-based
Square brackets hold non-standard residues; d marks the D form. Peptide text beside a SMILES is read from it. 2Nal = N[C@@H](Cc1ccc2ccccc2c1)C(=O)O; Nva = CCC[C@H](N)C(=O)O
Recorded HC10 values for a group of compounds are listed next.

compound | HC10
CC[C@H](C)[C@H](NC(=O)[C@H](CCCNC(=N)N)NC(=O)[C@H](CO)NC(=O)[C@H](CC(C)C)NC(=O)[C@H](CC(C)C)NC(=O)CN)C(=O)N[C@@H](CCCCN)C(=O)N[C@H](C(=O)N[C@@H](CC(C)C)C(=O)N[C@@H](CC(C)C)C(N)=O)[C@@H](C)O (H-GLLSRIKTLL-NH2) | > 500 µM
CCC[C@H](NC(=O)[C@H](CCC)NC(=O)[C@@H](NC(=O)[C@H](CCCCN)NC(=O)[C@H](Cc1ccc2ccccc2c1)NC(=O)[C@H](CCCNC(=N)N)NC(=O)[C@H](CCCCN)NC(=O)[C@H](CCC)NC(=O)[C@H](CCC)NC(=O)CN)[C@@H](C)O)C(N)=O (H-G[Nva][Nva]KR[2Nal]KT[Nva][Nva]-NH2) | > 500 µM
CCC[C@H](NC(=O)[C@H](CCC)NC(=O)[C@@H](NC(=O)[C@H](CCCCN)NC(=O)[C@@H](NC(=O)[C@H](CCCNC(=N)N)NC(=O)[C@H](CCCCN)NC(=O)[C@H](CCC)NC(=O)[C@H](CCC)NC(=O)CN)[C@@H](C)CC)[C@@H](C)O)C(N)=O (H-G[Nva][Nva]KRIKT[Nva][Nva]-NH2) | > 500 µM
